molecular target: Serine racemase (Homo sapiens) (UniProt Q9GZT4); assay: Inhibition of hexa-His-tagged purified human recombinant serine racemase expressed in Escherichia coli BL21 Codonplus (DE3)-RIL cells assessed as reduction in beta-elimination of L-serine at 5 mM by spectrophotomtery
Sequence (Q9GZT4 whole entry): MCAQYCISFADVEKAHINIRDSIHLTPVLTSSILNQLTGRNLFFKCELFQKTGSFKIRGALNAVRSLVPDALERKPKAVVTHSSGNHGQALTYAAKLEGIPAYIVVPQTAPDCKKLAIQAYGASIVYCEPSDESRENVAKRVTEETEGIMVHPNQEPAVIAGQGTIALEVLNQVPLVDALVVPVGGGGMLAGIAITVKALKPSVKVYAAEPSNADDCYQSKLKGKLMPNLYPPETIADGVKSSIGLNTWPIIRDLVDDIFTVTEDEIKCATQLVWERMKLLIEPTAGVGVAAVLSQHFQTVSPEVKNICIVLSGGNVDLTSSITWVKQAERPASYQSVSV
Would you kindly list inhibition for each of these compounds?

Returns the measured inhibition for the input compound. Input: O=C(O)CC1(C(=O)O)CN2CCC1CC2 (centres undefined)
2%

Can you handle O=C(O)NCS(=O)(=O)c1cccs1 next?
70%

Then CN1C(=O)C(=CNC(CC(=O)O)C(=O)O)C(=O)N(C)C1=O (centres undefined) ?
66%

Okay, and CC[C@H](NS(=O)(=O)c1ccc([N+](=O)[O-])cc1)C(=O)O ?
70%

###

target: Serine racemase (Homo sapiens); assay: Inhibition of hexa-His-tagged purified human recombinant serine racemase expressed in Escherichia coli BL21 Codonplus (DE3)-RIL cells assessed as reduction in beta-elimination of L-serine at by spectrophotomtery
Note to self: use MET only for Ki readings below 2000 µM; a reading exactly at 2000 µM still gets NOT MET.

Dear reviewer, please state whether O=C(O)CC(=O)O [MALONIC ACID] has Ki strictly beneath 2000 µM.
MET

Also need O=C(O)NCS(=O)(=O)c1cccs1 , thanks.
MET

Follow-up item: CN1C(=O)C(=CNC(CC(=O)O)C(=O)O)C(=O)N(C)C1=O (configuration not stated)
MET

Consider next the molecule O=C(O)CC1(C(=O)O)CN2CCC1CC2 (configuration not stated) in the same way.
NOT MET

Also check O=C(O)CC(CC(=O)O)C(=O)O [TRICARBALLYLIC ACID]
MET

Follow-up entry: CC[C@H](NS(=O)(=O)c1ccc([N+](=O)[O-])cc1)C(=O)O
MET

Subsequent entry: O=C(O)COCC(=O)Cc1cc(SCCO)cc([N+](=O)[O-])c1
NOT MET

###

target: Serine racemase (Homo sapiens, UniProt Q9GZT4); experiment: Inhibition of human recombinant serine racemase expressed in Escherichia coli Rosetta 2 (DE3) cells using L-serine as substrate by horseradish peroxidase based couple assay
Sequence (Q9GZT4 whole entry): as above
observationType: Ki (µM)
# value in µM; strip the unit string

Endpoint output: Ki of O=C(O)CC(=O)O . Value?
59
